Recorded values, source patent US8163728B2.

assay system: GABA A α5 (Homo sapiens, UniProt P18507+P31644)
Construct: expressed in transfected cells; host or cells: HEK293 cells, transiently transfected; membranes prepared from cell pellets
protocol summary: [3H]flumazenil competition binding, human GABA A α5β3γ2 receptors in HEK293 cell membranes
condition context: human receptor α5β3γ2 transiently transfected in HEK293; 0.5 nM [3H]flumazenil; 1 hour at 4° C.; means of two determinations; read-out: hKi GABA A α5
What Ki was measured for each of the following?
Numbers only, in nM.

Below are worked cases with known answers.
{"compound": "Cc1onc(-c2ccc(F)cc2)c1/C=C/c1cc(C(=O)N2CCOCC2)n(C)n1 [Example 129]", "measure unit": "nM", "Ki": 11.8}
{"compound": "Cc1onc(-c2ccc(F)cc2)c1/C=C/c1cc(C(=O)NC(C)CO)[nH]n1 (centres unmarked) [Example 139]", "measure unit": "nM", "Ki": 3}
{"compound": "Cc1onc(-c2ccc(F)cc2)c1COc1cc(C(=O)NCC(O)C(F)(F)F)n(C)n1 (single isomer, unassigned; (-)) [Example 68]", "measure unit": "nM", "Ki": 5.3}
{"compound": "CCCCc1noc(C)c1COc1cc(C(=O)NC(C)CO)n(C)n1 (racemic) [Example 87]", "measure unit": "nM", "Ki": 44.7}
{"compound": "CCCCc1noc(CO)c1COc1cc(C(=O)NC2CCC2)n(C)n1 [Example 113]", "measure unit": "nM", "Ki": 39.6}
{"compound": "Cc1onc(-c2ccccn2)c1CNc1cc(C(=O)NC2CCOCC2)n(C)n1 [Example 160]", "measure unit": "nM", "Ki": 25.4}

# return Ki for each item in the list
1. Cc1onc(-c2ccccc2)c1COc1cc(C(=O)NCCO)n(C)n1 [Example 42]
2. Cc1onc(-c2ccc(F)cc2)c1/C=C/c1cc(C(=O)NC(C)(C)CO)n(C)n1 [Example 143]

**A:**
1: 15.9; 2: 7.4

----------
assay system: GABA A α5 (Homo sapiens, UniProt P18507+P31644)
Construct: membranes prepared from cell pellets
protocol summary: [3H]flumazenil competition binding, human GABA A α5β3γ2 receptors in HEK293 cell membranes
condition context: human receptor α5β3γ2 transiently transfected in HEK293; 0.5 nM [3H]flumazenil; 1 hour at 4° C.; means of two determinations; read-out: hKi GABA A α5
measurement type: pKi
Give bare numbers, as −log10 of the molar value.

{"compound": "Cn1nc(OCc2c(-c3ccc(Cl)cc3)noc2CO)cc1C(=O)NCC(F)(F)C(F)(F)F", "assay system": "GABA A α5 (Homo sapiens, UniProt P18507+P31644)", "measurement type": "pKi", "assay result": 8.18}
{"compound": "Cc1onc(-c2ccc(F)cn2)c1COc1cc(C(=O)NC(C)C)[nH]n1", "assay system": "GABA A α5 (Homo sapiens, UniProt P18507+P31644)", "measurement type": "pKi", "assay result": 8.60}
{"compound": "Cc1onc(-c2ccc(F)cc2)c1/C=C\\c1cc(C(=O)NC(C)C)n(C)n1", "assay system": "GABA A α5 (Homo sapiens, UniProt P18507+P31644)", "measurement type": "pKi", "assay result": 7.55}
{"compound": "CCCCc1noc(CO)c1COc1cc(C(=O)NCC(F)(F)F)n(C)n1", "assay system": "GABA A α5 (Homo sapiens, UniProt P18507+P31644)", "measurement type": "pKi", "assay result": 7.35}
{"compound": "Cn1ccc(NC(=O)c2cc(OCc3c(-c4ccc(F)cc4)noc3CO)nn2C)n1", "assay system": "GABA A α5 (Homo sapiens, UniProt P18507+P31644)", "measurement type": "pKi", "assay result": 7.37}

Please report pKi for every entry that follows.
1. Cc1onc(-c2ccc(F)cc2)c1COc1cc(C(=O)N[C@@H](C)CO)n(C)n1 (single isomer, unassigned)
2. Cc1onc(-c2ccccc2)c1/C=C/c1cc(C(=O)NC(C)C)[nH]n1
3. Cc1onc(-c2ccccc2)c1COc1cc(C(=O)NC(C)C)[nH]n1

**A:**
1: 8.24; 2: 8.29; 3: 7.49

Each compound below has a reported value. Please supply its pKi.
1. Cc1onc(-c2ccc(F)cc2)c1/C=C/c1cc(C(=O)NC(C)C)[nH]n1
2. CCCCc1noc(C)c1COc1cc(C(=O)N2CCOCC2)[nH]n1
3. Cc1onc(-c2ccc(F)cn2)c1COc1cc(C(=O)NN2CCOCC2)[nH]n1
4. Cc1onc(-c2ccccn2)c1CNc1cc(C(=O)NC(C)C)n(C)n1
5. Cc1onc(-c2ccc(F)cc2)c1COc1cc(C(=O)NN2CCOCC2)[nH]n1
6. Cc1onc(-c2ccc(F)cc2)c1COc1cc(C(=O)NC(C)C)n(C)n1
7. Cn1nc(OCc2c(-c3ccc(Cl)cc3)noc2CO)cc1C(=O)N1CC2(COC2)C1
8. Cc1onc(-c2ccc(F)cn2)c1COc1cc(C(=O)NCCO)[nH]n1

**A:**
8.28
7.27
8.72
7.40
8.74
8.13
8.05
8.40

**Q:** For GABA A α5 (Homo sapiens, UniProt P18507+P31644), provide pKi of O=C(NN1CCOCC1)c1cc(OCc2conc2-c2ccc(F)cn2)n[nH]1 please.
**A:** 7.87

----------
Assignment: determine reported Ki for the given compounds.
assay system: GABA A α5 (Homo sapiens, UniProt P18507+P31644)
Construct: membranes prepared from cell pellets
protocol summary: [3H]flumazenil competition binding, human GABA A α5β3γ2 receptors in HEK293 cell membranes
condition context: human receptor α5β3γ2 transiently transfected in HEK293; 0.5 nM [3H]flumazenil; 1 hour at 4° C.; means of two determinations; read-out: hKi GABA A α5
Write the numeric value and append its unit.

Sample answers from the record:
{"compound": "Cn1nc(OCc2c(-c3ccc(Cl)cc3)noc2CO)cc1C(=O)NCC(F)(F)F", "assay system": "GABA A α5 (Homo sapiens, UniProt P18507+P31644)", "Ki": "5.7 nM"}
{"compound": "Cc1onc(-c2ccc(F)cc2)c1COc1cc(C(=O)NCC(C)(C)O)n(C)n1", "assay system": "GABA A α5 (Homo sapiens, UniProt P18507+P31644)", "Ki": "6.5 nM"}
{"compound": "Cc1onc(-c2ccc(F)cc2)c1CNc1cc(C(=O)NC2CCOCC2)n(C)n1", "assay system": "GABA A α5 (Homo sapiens, UniProt P18507+P31644)", "Ki": "4.7 nM"}
{"compound": "Cc1onc(-c2ccc(F)cc2)c1COc1cc(C(=O)NC2(C)COC2)n(C)n1", "assay system": "GABA A α5 (Homo sapiens, UniProt P18507+P31644)", "Ki": "4.3 nM"}
{"compound": "Cc1onc(-c2ccc(F)cc2)c1COc1cc(C(=O)N[C@@H]2CCCC2O)n(C)n1 (single isomer, unassigned; (+))", "assay system": "GABA A α5 (Homo sapiens, UniProt P18507+P31644)", "Ki": "2 nM"}

**Q:** Which Ki reading was recorded for the compound Cc1onc(-c2ccccn2)c1COc1cc(C(=O)NC2CCOCC2)nn1C ?
**A:** 18.2 nM

----------
assay system: GABA A α5 (Homo sapiens, UniProt P18507+P31644)
Construct: expressed in transfected cells; host or cells: HEK293 cells, transiently transfected; membranes prepared from cell pellets
protocol summary: [3H]flumazenil competition binding, human GABA A α5β3γ2 receptors in HEK293 cell membranes
condition context: human receptor α5β3γ2 transiently transfected in HEK293; 0.5 nM [3H]flumazenil; 1 hour at 4° C.; means of two determinations; read-out: hKi GABA A α5
Exercise: for every item that follows, state its recorded pKi.
Give bare numbers, as −log10 of the molar value.

Here are 5 compounds together with their reported answers.
{"compound": "Cc1onc(-c2ccc(F)cn2)c1CNc1cc(C(=O)NC2CCOCC2)n(C)n1", "measurement type": "pKi", "assay result": 7.92}
{"compound": "CCCCc1noc(C)c1COc1cc(C(=O)NC2CCOC2)[nH]n1 (racemic) [Example 28]", "measurement type": "pKi", "assay result": 8.27}
{"compound": "Cn1nc(OCc2c(-c3ccc(F)cc3)noc2CO)cc1C(N)=O", "measurement type": "pKi", "assay result": 7.83}
{"compound": "Cc1onc(-c2ccc(F)cc2)c1CNc1cc(C(=O)NC(C)CO)[nH]n1 (centres unmarked)", "measurement type": "pKi", "assay result": 7.29}
{"compound": "CCCCc1noc(C)c1COc1cc(C(=O)NC2CCOC2)[nH]n1 (single isomer, unassigned; (-)) [Example 34]", "measurement type": "pKi", "assay result": 8.24}

For each listed entry, give its pKi.
1. Cc1onc(-c2ccccc2)c1COc1cc(C(N)=O)[nH]n1
2. COCCNC(=O)c1cc(OCc2c(-c3ccc(F)cc3)noc2C)nn1C

**A:**
7.44
7.88

Batch request: pKi per item, same order as input.
1. CC(C)NC(=O)c1cc(OCc2c(-c3ccc(Cl)cc3)noc2CO)nn1C
2. CCNC(=O)c1cc(/C=C/c2c(-c3ccc(F)cc3)noc2C)n[nH]1
3. Cc1onc(-c2ccc(F)cn2)c1COc1cc(C(=O)NN(C)C)[nH]n1
4. Cn1nc(OCc2c(-c3ccc(Cl)cc3)noc2CO)cc1C(=O)NC(C)(C)CO
5. CCCCc1noc(C)c1COc1cc(C(=O)N[C@@H](C)CO)[nH]n1 [Example 27]
6. CCC(CO)NC(=O)c1cc(OCc2c(-c3ccc(F)cc3)noc2C)nn1C (single isomer, unassigned; (+)) [Example 70]
7. Cc1onc(-c2ccc(F)cc2)c1CNc1cc(C(=O)NCC(F)(F)F)n(C)n1
8. Cc1onc(-c2ccc(F)cc2)c1CNc1cc(C(N)=O)[nH]n1

**A:**
1. 8.24
2. 8.09
3. 8.17
4. 7.75
5. 8.11
6. 7.78
7. 7.82
8. 7.36

Below are some compounds; for each one, tell me its pKi.
1. Cc1onc(-c2ccc(F)cn2)c1CNc1cc(C(=O)NCC2CC2)n(C)n1
2. CCCCc1noc(C)c1COc1cc(C(=O)NC2CCOC(C)(C)C2)[nH]n1 (racemic)
3. Cc1onc(-c2ccc(F)cc2)c1COc1cc(C(=O)NCC(O)C(F)(F)F)n(C)n1 (racemic) [Example 59]
4. Cc1onc(-c2ccc(F)cn2)c1COc1cc(C(=O)NN(C)C)n(C)n1
5. Cc1onc(-c2ccc(F)cc2)c1/C=C\c1cc(C(=O)NC(C)CO)n(C)n1 (centres unmarked)
6. Cc1onc(-c2ccccn2)c1COc1cc(C(=O)NC(C)CO)n(C)n1 (stereo in doubt)
7. CCCCc1noc(C)c1COc1cc(C(=O)NN(C)C)[nH]n1

**A:**
[7.25, 7.66, 8.74, 7.53, 7.30, 7.63, 7.41]

For each of the compounds below, state pKi.
1. CCCCc1noc(C)c1COc1cc(C(=O)NC2CCOC2)n(C)n1 (racemic)
2. Cc1onc(-c2ccc(F)cc2)c1/C=C/c1cc(C(=O)N2CCS(=O)(=O)CC2)[nH]n1
3. Cn1nc(OCc2c(-c3ccc(Cl)cc3)noc2CO)cc1C(=O)N1CCC(F)(F)CC1
4. Cc1onc(-c2ccc(F)cn2)c1CNc1cc(C(=O)N2CC3(COC3)C2)n(C)n1

**A:**
[7.69, 7.44, 7.28, 7.11]
